Ref: the array DNA melting data of Ke et al.

experimentNotes: melting temperature; UV melt of duplexes
experimentalParameters: sodium 0.62 M; strand 2 µM
measurementType: Tm (°C)
Write the value in °C as a bare number.

Solved cases below.
>>> quantitativeresult("TATGTATATTTTGTAATCAG+CTGATTACAAAATATACATA ((((((((((((((((((((+))))))))))))))))))))")
57.6
>>> quantitativeresult("CAGTGAGACAGCAATGGTCG+CGACCATTGCTGTCTCACTG ((((((((((((((((((((+))))))))))))))))))))")
71.1
>>> quantitativeresult("CGTACTAGCGTTGGTCATGG+CCATGACCAACGCTAGTACG ((((((((((((((((((((+))))))))))))))))))))")
70.5
>>> quantitativeresult("ATGGGTGGGAGCCTCGGTAGCAGCC+GGCTGCTACCGAGGCTCCCACCCAT (((((((((((((((((((((((((+)))))))))))))))))))))))))")
81.6
>>> quantitativeresult("CCCTGCACTTTAACTGAATTGTTTA+TAAACAATTCAGTTAAAGTGCAGGG (((((((((((((((((((((((((+)))))))))))))))))))))))))")
70.1

So what's the measured Tm for this one? CGGAATCCATGTTACTTCGGCTATC+GATAGCCGAAGTAACATGGATTCCG (((((((((((((((((((((((((+)))))))))))))))))))))))))
73.3
